src = ChEMBL document CHEMBL1127802

# assayedTarget: Amine oxidase [flavin-containing] A (Rattus norvegicus, UniProt P21396)
# Sequence (P21396 whole entry): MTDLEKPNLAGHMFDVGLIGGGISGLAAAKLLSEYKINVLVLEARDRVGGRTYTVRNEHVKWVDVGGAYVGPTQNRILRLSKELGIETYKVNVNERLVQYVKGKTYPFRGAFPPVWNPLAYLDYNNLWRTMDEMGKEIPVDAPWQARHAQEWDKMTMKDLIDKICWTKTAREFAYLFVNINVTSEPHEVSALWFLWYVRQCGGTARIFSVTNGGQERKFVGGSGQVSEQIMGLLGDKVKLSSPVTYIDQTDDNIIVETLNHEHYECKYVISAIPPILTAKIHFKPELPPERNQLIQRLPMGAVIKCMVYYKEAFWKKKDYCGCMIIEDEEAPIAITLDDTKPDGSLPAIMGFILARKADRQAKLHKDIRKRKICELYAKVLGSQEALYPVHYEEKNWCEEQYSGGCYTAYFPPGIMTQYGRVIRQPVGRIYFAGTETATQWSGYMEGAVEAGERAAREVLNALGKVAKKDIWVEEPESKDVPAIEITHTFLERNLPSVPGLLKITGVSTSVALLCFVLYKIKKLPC
# assayDetails: Inhibitory activity against monoamine oxidase A (MAO A) from rat brain using a radiometric procedure with [3H]5-HT
pIC50: −log10 of the molar value.
Use 7 as the dividing line for pIC50, with the line itself on the condition met side and lower values as condition not met.

// inclusive: pIC50 at least 7? input: CC(=O)Nc1ccc2c3ccccc3n(C)c2c1
condition met

// inclusive: pIC50 at least 7? input: CC(=O)Nc1ccc2c(c1)-c1ccccc1S2(=O)=O
condition not met

// inclusive: pIC50 at least 7? input: CC(=O)Nc1ccc2c(c1)C(O)c1ccccc1-2 (stereo not given)
condition not met

// inclusive: pIC50 at least 7? input: CC(=O)Nc1ccc2c(c1)S(=O)(=O)c1ccccc1O2
condition met

// inclusive: pIC50 at least 7? input: CC(=O)Nc1ccc2c(c1)C(=O)c1ccccc1-2
condition met

// inclusive: pIC50 at least 7? input: O=CNc1ccc2c(c1)-c1ccccc1S2(=O)=O
condition not met

// inclusive: pIC50 at least 7? input: CC(=O)Nc1ccc2c(c1)C(=O)c1cc([N+](=O)[O-])ccc1-2
condition not met

// inclusive: pIC50 at least 7? input: CC(=O)Nc1ccc2c(c1)oc1ccccc12
condition not met

// inclusive: pIC50 at least 7? input: CCCc1ccc2c(c1)S(=O)(=O)c1cc(NC(C)=O)ccc1C2=O
condition met

---

# assayedTarget: MAO B (monoamine oxidase B) (Rattus norvegicus, UniProt P19643)
# assayDetails: Inhibitory activity against monoamine oxidase B (MAO B) from rat brain using a radiometric procedure with [14C]- phenethylamine at 0.1 uM
# setupConditions: rat brain monoamine oxidase B preparation, probe [14C]-phenethylamine
readoutKind: inhibition at 0.1 µM (%)
Dear colleague, please return just the value in %, with no unit written.

Lookup: inhibition at 0.1 µM / MAO B (monoamine oxidase B) (Rattus norvegicus, UniProt P19643) / CC(=O)Nc1ccc2oc(=O)c3ccccc3c2c1
23

---

# assayedTarget: UniProt P19643
# Sequence (P19643 whole entry): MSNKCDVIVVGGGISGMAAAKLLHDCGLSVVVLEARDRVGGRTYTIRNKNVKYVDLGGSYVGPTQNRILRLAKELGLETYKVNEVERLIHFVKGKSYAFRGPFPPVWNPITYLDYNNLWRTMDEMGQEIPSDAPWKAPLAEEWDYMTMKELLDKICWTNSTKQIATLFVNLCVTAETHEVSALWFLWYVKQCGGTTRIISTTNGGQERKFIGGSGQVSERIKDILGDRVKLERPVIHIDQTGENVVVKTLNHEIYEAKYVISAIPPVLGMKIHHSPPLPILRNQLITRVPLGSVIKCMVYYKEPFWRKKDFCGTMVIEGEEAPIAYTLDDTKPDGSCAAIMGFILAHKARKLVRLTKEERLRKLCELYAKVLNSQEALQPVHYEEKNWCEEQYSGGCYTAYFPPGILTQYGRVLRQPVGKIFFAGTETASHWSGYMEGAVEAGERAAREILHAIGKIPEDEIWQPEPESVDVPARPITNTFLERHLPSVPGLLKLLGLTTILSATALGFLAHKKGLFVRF
# assayDetails: Inhibitory activity against monoamine oxidase B (MAO B) from rat brain using a radiometric procedure with [14C]phenylethylamine at 0.1 uM
# setupConditions: rat brain monoamine oxidase B preparation, probe [14C]phenylethylamine
readoutKind: inhibition at 0.1 µM (%)
Dear colleague, please return just the value in %, with no unit written.

Lookup: inhibition at 0.1 µM / UniProt P19643 / CC(=O)Nc1ccc2c(c1)S(=O)(=O)c1ccccc1O2
0
